The measured values listed here are drawn from patent US20050004126A1.

- System: MMP-13CD (catalytic domain of collagenase 3) (Homo sapiens)
- Protocol Notes: Thiopeptolide hydrolysis assay, MMP-13
- Test Context: MMP13 IC50 (nM), Table II
Property: log10 of IC50 (log10 of the value in nM)
Recorded IC50 (log10, nM)

q: State, for MMP-13CD (catalytic domain of collagenase 3) (Homo sapiens), measured log10 of IC50 of the molecule listed here: COc1cccc(CNC(=O)c2cccc(C(=O)NCc3cccc(OC)c3)c2)c1
a: 3.13

q: State, for MMP-13CD (catalytic domain of collagenase 3) (Homo sapiens), measured log10 of IC50 of the molecule listed here: COc1ccc(C(=O)NCCOc2ccccc2)cc1C(=O)NCc1ccc2c(c1)OCO2
a: 3.49

q: State, for MMP-13CD (catalytic domain of collagenase 3) (Homo sapiens), measured log10 of IC50 of the molecule listed here: O=C(NCc1ccc2c(c1)OCO2)c1cccc(C(=O)NCc2ccco2)c1
a: 3.53

q: State, for MMP-13CD (catalytic domain of collagenase 3) (Homo sapiens), measured log10 of IC50 of the molecule listed here: COc1ccc(C(=O)OCc2ccccc2)cc1C(=O)OCc1ccccc1
a: 2.95

q: State, for MMP-13CD (catalytic domain of collagenase 3) (Homo sapiens), measured log10 of IC50 of the molecule listed here: COc1ccc(CNC(=O)c2ccc(OC)c(C(=O)NCc3ccc(OC)cc3)c2)cc1
a: 2.40

q: State, for MMP-13CD (catalytic domain of collagenase 3) (Homo sapiens), measured log10 of IC50 of the molecule listed here: CC(C)Oc1ccc(C(=O)NCc2ccc3c(c2)OCO3)cc1C(=O)NCc1ccc2c(c1)OCO2
a: 3.57

q: State, for MMP-13CD (catalytic domain of collagenase 3) (Homo sapiens), measured log10 of IC50 of the molecule listed here: O=C(NCc1cccnc1)c1cccc(C(=O)NCc2ccc3c(c2)OCO3)c1
a: 3.18

q: State, for MMP-13CD (catalytic domain of collagenase 3) (Homo sapiens), measured log10 of IC50 of the molecule listed here: O=C(OCc1ccccc1)c1cc(C(=O)OCc2ccccc2)cc([N+](=O)[O-])c1 [5-Nitro-isophthalic acid dibenzyl ester]
a: 3.18

q: State, for MMP-13CD (catalytic domain of collagenase 3) (Homo sapiens), measured log10 of IC50 of the molecule listed here: COc1ccc(C(=O)NCc2ccc3c(c2)OCO3)cc1C(=O)NCc1ccc(Cl)cc1
a: 2.60

----------
- System: MMP-13CD (catalytic domain of collagenase 3) (Homo sapiens)
- Protocol Notes: Thiopeptolide hydrolysis assay, MMP-13;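 further: inhibition of enzymatic thiopeptolide substrate cleavage (100 µM) in pH 6.0 MES buffer with CaCl2 and DTNB, comparing hydrolysis with versus without inhibitor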
- Test Context: IC50 μM, Table VII; MMP-13
Property: IC50 (µM)
Respond with the bare value in µM.

q: State, for MMP-13CD (catalytic domain of collagenase 3) (Homo sapiens), measured IC50 of the compound listed here: COc1ccc(CC#Cc2ccc3c(c2)c(=O)n(Cc2ccc(C(=O)O)cc2)c(=O)n3C)cc1 [Synthesis Example 68]
a: 0.0006

q: State, for MMP-13CD (catalytic domain of collagenase 3) (Homo sapiens), measured IC50 of the compound listed here: COC(=O)c1ccc(Cn2c(=O)c3cc(C#CCc4ccc(OC)cc4)ccc3n(C)c2=O)cc1 [Synthesis Example 66]
a: 0.01

q: State, for MMP-13CD (catalytic domain of collagenase 3) (Homo sapiens), measured IC50 of the compound listed here: Cn1c(=O)n(Cc2ccc(C(=O)O)cc2)c(=O)c2cc(C#Cc3ccccc3)ccc21 [Synthesis Example 75]
a: 1.34

q: State, for MMP-13CD (catalytic domain of collagenase 3) (Homo sapiens), measured IC50 of the compound listed here: COc1ccc(CC#Cc2cc3c(=O)n(Cc4ccc(C(=O)O)cc4)c(=O)n(C)c3cn2)cc1 [Synthesis Example 70]
a: 0.0012

q: State, for MMP-13CD (catalytic domain of collagenase 3) (Homo sapiens), measured IC50 of the compound listed here: COC(=O)c1ccc(Cn2c(=O)c3cc(C#CCc4ccc(OC)cc4)ccc3n3cnnc23)cc1 [Synthesis Example 73]
a: 0.0017

q: State, for MMP-13CD (catalytic domain of collagenase 3) (Homo sapiens), measured IC50 of the compound listed here: COc1ccc(CC#Cc2ccc3c(c2)c(=O)n(Cc2ccccc2)c2nncn32)cc1 [Synthesis Example 72]
a: 0.0015

q: State, for MMP-13CD (catalytic domain of collagenase 3) (Homo sapiens), measured IC50 of the compound listed here: O=c1c2cc(C#CCc3ccccc3)ccc2n2cnnc2n1Cc1ccccc1 [Synthesis Example 71]
a: 0.0055

q: State, for MMP-13CD (catalytic domain of collagenase 3) (Homo sapiens), measured IC50 of the compound listed here: Cn1c(=O)n(Cc2ccc(C(=O)O)cc2)c(=O)c2cc(C#CCc3ccccc3)ncc21 [Synthesis Example 69]
a: 0.0065

q: State, for MMP-13CD (catalytic domain of collagenase 3) (Homo sapiens), measured IC50 of the compound listed here: O=C(O)c1ccc(Cn2c(=O)c3cc(C#CCc4ccccc4)ccc3n3cnnc23)cc1 [Synthesis Example 74]
a: 0.001
